Relative potency reference
- Test system: Enterococcus
- assay.text: In vitro antibacterial activity against Enterococcus relative to thienamycin
- Assay type: functional
The response must contain the number and no unit.

Check out these entries, answers already filled in.
| chemical.smiles | value.kind | quantitative.readout |
| --- | --- | --- |
| C[C@@H](O)[C@H]1C(=O)N2C(C(=O)O)=C(c3ccc(CN4CCCC4)cc3)C[C@H]12 | Relative potency | 12.1 |
| C[C@@H](O)[C@H]1C(=O)N2C(C(=O)[O-])=C(c3ccc(C[N+]4(C)CCCCC4)cc3)C[C@H]12 | Relative potency | 14.9 |
| CSCc1ccc[n+](Cc2ccc(C3=C(C(=O)[O-])N4C(=O)[C@H]([C@@H](C)O)[C@H]4C3)cc2)c1 | Relative potency | 19.7 |

-- ask State Relative potency (Enterococcus) of C[C@@H](O)[C@H]1C(=O)N2C(C(=O)[O-])=C(c3ccc(C[n+]4ccc5ccccc5c4)cc3)C[C@H]12 .
-- reply 24.3
